Values compiled from patent US20210054097A1.

- target: T1, FX activation peptide 12-mer PYDAADLDPTEN (human)
- T1 peptide: PYDAADLDPTEN-biotin
- method.notes: peptide ELISA
Ends that are not written are not given here.
property: ELISA signal relative to background
Give your answer as a number; write no unit.

Query block: Supply measured ELISA signal relative to background of Nb 701D07 (VHH, monovalent Nanobody; not shown: C-terminal FLAG3 and HIS6 tag) VHH: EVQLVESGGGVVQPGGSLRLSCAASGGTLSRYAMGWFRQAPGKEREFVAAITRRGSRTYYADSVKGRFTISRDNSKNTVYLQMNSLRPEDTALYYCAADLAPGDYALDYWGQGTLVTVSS in your reply.
Result block: 0.73

New cases:
Query block: Supply measured ELISA signal relative to background of Nb 730C03 (VHH, monovalent Nanobody; also called Nb 730003; not shown: C-terminal FLAG3 and HIS6 tag) VHH: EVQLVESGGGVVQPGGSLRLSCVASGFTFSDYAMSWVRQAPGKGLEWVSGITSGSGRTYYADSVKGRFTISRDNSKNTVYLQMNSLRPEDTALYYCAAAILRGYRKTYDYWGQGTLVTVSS in your reply.
Result block: 1.2
